// data source = PubChem BioAssay (NCI)

Test system: A498 renal
Assay: NCI-60 one-dose screen, 48 h (100 = growth as untreated, 0 = no growth, -100 = all killed)
Details: 10 µM unless noted
About 83,000 compounds went through this panel and 20% of them were active in at least one assay; those are over-represented in the sample as a whole.
Output t for records whose growth is lower than 90%, f for records at or above 90%.

Input line: Please determine if COc1cc(C(=O)c2cc(C(C)=O)c3cccc(C)n23)cc(OC)c1OC is below 90% in terms of growth.
Output line: t

Input line: Please determine if CS(=O)(=O)c1ccc(/C(=N/N=C(N)N)c2ccc(Cl)cc2)cc1 is below 90% in terms of growth.
Output line: t

Input line: Please determine if CCc1cc(OC(=O)N2CCC(N3CCCCC3)CC2)ccc1Nc1cc(-c2ccc(-n3cccn3)cc2)[nH]n1 is below 90% in terms of growth.
Output line: t

Input line: Please determine if FC(F)(F)c1cc(Br)cc(-c2cc(-c3ccc4c(c3)OCCO4)[nH]n2)c1 is below 90% in terms of growth.
Output line: t

Input line: Please determine if CN1CCN(c2ccc(Nc3nc(NCCCNS(=O)(=O)c4ccc(C(F)(F)F)cc4)c4sccc4n3)cc2)CC1 is below 90% in terms of growth.
Output line: t

Input line: Please determine if COC(=O)CCSC1=C(C)C(=O)c2ccccc2C1=O is below 90% in terms of growth.
Output line: f

Input line: Please determine if COc1ccc(-c2c(C(N)=O)c(N)n(Cc3nc4ccccc4[nH]3)c(=O)c2C#N)c(OC)c1 is below 90% in terms of growth.
Output line: f
